Catalogue of apparent Kd values
System: MS2 coat protein
protocol.summary: apparent Kd, MS2 coat protein; higher = weaker binding; RNA-MaP array; FMN 200 µM where present
condition.notes: ligand present: flavin mononucleotide; designed as: ON switch for flavin mononucleotide
Write the answer as a number in nM, unit excluded.

apparent Kd recorded for this sequence, `AAAUACGUAAAGGACACAUGAGGAUCACCCAUGUUUCUGUUCAAGGAUAUGAGGUGAAUGAUCCGUCAGAAGGUGAACUUGCUU` , is 624

`UUAGCAUACCGAGGAUAUUCAUAUAAUAAAUAAACAUGAGGAUCACCCAUGUGGCGAAAGCCUAGGGAGAAGGCGGAAUGCUAA` yielded apparent Kd of 21.9

Per the record, `GAACCUAAGUUAGGAUAUGUCUAAGAAAGCUGACAUGAGGAUCACCCAUGUGAAUGCAAAGAAUGGCAGAAGGGAUAUGGGUGG` has apparent Kd of 76.8

apparent Kd reading for `AUAAUUAAGCGAGGAUAUAUAUAGAAUAAUUAUAUAGAAGGCGCAAAACAUGAGGAUCACCCAUGUCACCCAUGUUGUGUGUAA` : 47.3

// sample `GGAGCCGGUACUGAGGAUAUUCAUAUUAAAACAUGAGGAUCACCCAUGUAGGCCAGAAGGCCUUGGGAGAAGGCAGACCAGCUCG` , its apparent Kd was 26.7

###

# apparent Kd per entry
System: MS2 coat protein
protocol.summary: apparent Kd, MS2 coat protein; higher = weaker binding; RNA-MaP array
condition.notes: ligand present: flavin mononucleotide; designed as: OFF switch for flavin mononucleotide
Dear colleague, please return just the value in nM, with no unit written.

UUAAUACAUGAGGAUCACCCAUGUUAGGAUAUAGAAAUCGCUGGUGCGAGAAGACAGGCUAGAAGGAACACGGA ... 9.62
GUUCUGCAUAAGGAUAUAUGAGCACACGCAGACAUAGAAGGUAUGACAUGAGGAUCACCCAUGUCCUCUCGAGA ... 8.65

Input `AUUUAAAAGUUAGGAUAUCUCAUCAGCUCAAUAGAUGACAUGAGGAUCACCCAUGUGACCAAAGGAGAGAAGGAACUCAUAAUG` . Output apparent Kd: 31.4

# apparent Kd of `ACCCAUUUGUUAGGAUAUGACUCGAGACAGGUACAUGAGGAUCACCCAUGUUGUACAGGACCGUCUCAGAAGGAACGAACGUAU` = 8.75

Sample `CUUAACAAAGGAUAUACACAAAUGAUUAAGGUGCCGGGAAAACAUGAGGAUCACCCAUGUAGAAGGUUGUAACA` ; apparent Kd observed: 7.75

// sample `UUGGCGUCAGGAUAUACCGGUCGAUUCACAAUGAACUCCGUACAUGAGGAUCACCCAUGUAGAAGGGACAGUGG` , its apparent Kd was 6.07

Query `ACAGGUAGAGGAUAUCGUGAAAGUCACAUGAGGAUCACCCAUGUGGUAAGCAUGUACGCCCGAGAAGGCUAACCGC` yields apparent Kd of 12.4

Summary for this sequence, `GAACUGUGAGGAUAUACAUGAGGAUCACCCAUGUUUGUGUUGGCACGCACUCGGGCAAGUAGAAGGCACAGAUG` : apparent Kd is 73.7

###

Tested on: MS2 coat protein
protocol.summary: apparent Kd, MS2 coat protein; higher = weaker binding; RNA-MaP array; tryptophan 2.4 mM where present
condition.notes: ligand present: tryptophan; designed as: ON switch for tryptophan
Listed below: apparent Kd values for each entry.
Write it as a number; the unit nM goes unstated.

GACCCAUGAGUUGUAAAAGCUCAUGGGUCGCGAGGACCGGUACGGCCGCCACUCGGCUGUACAUGAGGAUCACCCAUGUCAGGGU ... 761
UCGGACAUGAGGAUCACCCAUGUAAAUCCUCGAGGACCGGUACGGCCGCCACUCGAACGAGUGGCACGCGAGUGCGCACUCGCGU ... 27.7
AAUAAUAUCCUCAUGUGAGUCGUACCAUAACGAGGACCGGUACGGCCGCCACUCGAACAUGAGGAUCACCCAUGUAGGUAUGAUA ... 200

Entry `AGAAUAUAGUCGGCCGCCACUCUACAAACAUGAGGAUCACCCAUGUUCACAUAGUGGAAACACAUGAGGACCGGGACAUAGGCAU` , apparent Kd reported as 14.2

The recorded apparent Kd for `AAUCAUGAAAACAUGACAUGAGGAUCACUCCGAGGACCGGUACGGCCGCCACUCGCGAGGAGGCGGACAUGAGGAUCACCCAUGU` is 66.3

###

Below, each entry is listed with its recorded apparent Kd.
Tested on: MS2 coat protein
protocol.summary: apparent Kd, MS2 coat protein; higher = weaker binding; RNA-MaP array
condition.notes: ligand present: flavin mononucleotide; designed as: OFF switch for flavin mononucleotide
Reply with a number, then the unit it belongs to.

CGGCAACUGUAGAAGGAGCAUCCCACAUCUAAGCUAGGAUAUACGUAAUGUAUGUACAUGAGGAUCACCCAUGUGUGCACCAGG ... 24.2 nM
GCGAAGCAAGGAUAUGCCCGGCGAUACAUGAGGAUCACCCAUGUGAUGUAGUUAGUUGUAGCAGAAGGUGCGCGAU ... 11.4 nM
GCGCGCGUAGUCAGGAUAUGGUAUAAGUAACUUGGCCAGAAGGGACAUGAGGAUCACCCAUGUGCAUUGCUAGC ... 9.47 nM

The measured apparent Kd associated with `AACCGACAUGAGGAUCACCCAUGUGAGGAUAUGUUCGAGCUGGCAGGACCACCCUGGGACAGAAGGCACGUGAA` reads 17.7 nM

The sequence identified as `UCAUGGUCAGGAUAUACGAUUAGACAUGGCUUCGAUAAGUCGUAGAAGGGACAUGAGGAUCACCCAUGUAGCAA` registered its apparent Kd at 33.5 nM

Reported apparent Kd for `UCAUCUGGGUCUUUGGUGCACAUGAGGAUCACCCAUGUAACUUAGGAUAUUAGUUAUGAUAUGAUUAAGAAGGAAGUCGCUAUU` was 16.9 nM

Memo: `UUUUUAUGGCAGACUACCGCACAUGAGGAUCACCCAUGUUACAGAAGGGACCACAUCCCACCUGGUCAGGAUAUGUAUACGCGG` , reported apparent Kd: 6.77 nM

###

Tested on: MS2 coat protein
protocol.summary: apparent Kd, MS2 coat protein; higher = weaker binding; RNA-MaP array
condition.notes: designed as: OFF switch for theophylline; no ligand
measured.quantity: apparent Kd (nM)
Record the value in nM, omitting the unit from your answer.

Worked cases, apparent Kd given:
UUUACCGACACAGAUCACUAAAACCUUGAUACCAGUCCCAGUGGCGACCCUUGGCAGCAAUAUACAUGAGGAUCACCCAUGUGCA ... 14.7
AGACAUGAGGAUCACCCAUGUGAAGUGGAUACCAGCCGCAGCGAUGGCCCUUGGCAGCCAGCUUUGUGUCGAUACAUCCGCACUU ... 15.9

Entry `ACCUAAGCCACAGAUACCAGAGUAAUAGGCCAAUUUCAAAACAUGAGGAUCACCCAUGUACUCCCUUGGCAGCUGCGAAUCGAAA` — recorded apparent Kd = 10.9

So for `AUUGUGAACCUGAUCGUAUAAUGUAGCGAUACCAGUAUAAUACAUUACCCUUGGCAGCGCGACACAUGAGGAUCACCCAUGUAAG` , the logged apparent Kd turned out to be 26.5

###

Form field: apparent Kd (one value per entry).
Test system: MS2 coat protein
protocol.summary: apparent Kd, MS2 coat protein; higher = weaker binding; RNA-MaP array; theophylline 2 mM where present
condition.notes: designed as: ON switch for theophylline; no ligand
Give a bare numeral; the unit nM is implied.

Solved entries (count: 4):
AACCGAGGCUAUCCUCUAAGAAUAUGUGAUACCAGAAUAAUUUUAUUCCCUUGGCAGCAUGACAUGAGGAUCACCCAUGUGUCUU ... 134
UUCAGUACAACAGAUACCAGACAGUACUCUAAAUUGCAACAUGAGGAUCACCCAUGUAUAGUCCCUUGGCAGCUGUAAUGGGUGA ... 114
CGUACAUGAGGAUCACCCAUGUAGAGUGAUACCAGUCUACCUAGUGACCCUUGGCAGCACAUCGAUGGCAUCGGUGAUGCCGUUU ... 87.3
CUCUGAGUGAGCAAUCACUCAGAGGCGGAUACCAGCGAGGUCCAUCGCCCUUGGCAGCCGAACAUGAGGAUCACCCAUGUCGGUA ... 10.1

apparent Kd reading for `AAUCUGUCGGGUGAUACCAGCCUCGGCACGUCUCGUGCCGAACAUGAGGAUCACCCAUGUGGCCCUUGGCAGCACAUGACAAAUC` : 258

Notebook: `GCUGUAAGUGCAGAUACCAGCGUGUUAUAUUUCUAAUGACAUGAGGAUCACCCAUGUAAAUGCCCUUGGCAGCUGCACUUACAGC` , apparent Kd read as 16.1

These data points were gathered from the EternaBench riboswitch data.
